- subject.of.test: PIM1 (human) (UniProt P11309)
- Sequence (P11309 whole entry, looked up): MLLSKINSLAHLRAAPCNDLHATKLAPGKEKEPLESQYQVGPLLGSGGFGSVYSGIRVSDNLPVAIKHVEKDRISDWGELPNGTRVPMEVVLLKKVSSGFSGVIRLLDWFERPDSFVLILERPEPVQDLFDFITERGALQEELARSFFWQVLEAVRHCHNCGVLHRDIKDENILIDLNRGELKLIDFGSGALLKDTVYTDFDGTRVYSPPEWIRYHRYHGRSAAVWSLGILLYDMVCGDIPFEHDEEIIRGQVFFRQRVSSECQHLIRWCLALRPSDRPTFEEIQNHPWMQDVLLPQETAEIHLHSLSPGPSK
- assay.notes: radiometric filter-binding kinase assay
- assay.setup: compound 1.0 µM
Each item that follows carries a reported residual activity.
Your answer is read as %, so omit the unit and give the number.

Sample records with residual activity:
In [3]: df
Out[3]:
                                   molecule          parameter  quantitative_result
0  CNC(=O)C1[C@H]2O[C@@](C)([C@@H]1N)n1c3ccccc3c3c4c(c5c6ccccc6n2c5c31)C(=O)NC4 (some centres undefined)  residual activity                    1
1          NC(=O)c1c(NC(=O)C2CC2)sc2c1CCCC2  residual activity                   96
2                Cn1c(=O)c2c(ncn2C)n(C)c1=O  residual activity                   97

stdin: Would you mind telling me what residual activity value was observed for `Cc1ccc(Sc2cnc(Nc3cccc(Br)n3)s2)cc1C(=O)N1CCN(C(=O)CN)CC1` ?
stdout: 49

---

- Test system: SGK1 (human), O00141 [S422D]
- Sequence (O00141 whole entry S422D, looked up): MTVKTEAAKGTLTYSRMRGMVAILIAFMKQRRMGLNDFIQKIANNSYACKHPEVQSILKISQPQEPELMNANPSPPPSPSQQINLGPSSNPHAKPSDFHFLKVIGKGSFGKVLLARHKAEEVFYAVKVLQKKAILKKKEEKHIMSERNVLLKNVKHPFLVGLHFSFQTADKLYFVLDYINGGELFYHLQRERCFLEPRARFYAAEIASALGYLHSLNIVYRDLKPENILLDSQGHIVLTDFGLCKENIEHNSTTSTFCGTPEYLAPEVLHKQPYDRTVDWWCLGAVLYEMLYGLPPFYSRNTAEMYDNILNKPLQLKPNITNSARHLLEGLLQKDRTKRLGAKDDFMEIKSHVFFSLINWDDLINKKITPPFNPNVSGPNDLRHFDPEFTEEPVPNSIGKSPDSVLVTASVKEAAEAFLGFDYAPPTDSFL
- assay.notes: radiometric filter-binding kinase assay
- assay.setup: compound 10.0 µM
parameter: residual activity (%)
Your answer is read as %, so omit the unit and give the number.

Sample records with residual activity:
>>> df
                                   molecule  quantitative_result
0   Cc1nc(-c2ccc(OCC(C)C)c(C#N)c2)sc1C(=O)O                   98
1  O=C1Nc2nc(-c3c(O)cccc3OCC3CC3)cc(C3CCCNC3)c2CO1 (configuration not stated)                   13
2  O=c1c(O)c(-c2ccc(O)c(O)c2)oc2cc(O)c(O)c(O)c12                   24
3  NC(=O)c1cc2c(-c3cccc(-c4ccccc4)c3)cnc(N)c2s1                   46
4  O=C(O)c1cc(N=Nc2ccc(S(=O)(=O)Nc3ccccn3)cc2)ccc1O                   54
5            Oc1ccc(/C=C/c2cc(O)cc(O)c2)cc1                   94
6    CN1C(=O)[C@@H](Cc2c[nH]c3ccccc23)NC1=S                   98
7  COc1ccc2c(c1)c1c3c(c4c5ccccc5n(C)c4c1n2CC(O)CN(C)C)C(=O)NC3=O (configuration not stated)                    6

Turning now to a further record.
stdin: For SGK1 (human), O00141 [S422D], provide residual activity of `CNc1nc(-c2ccc3c(N)n[nH]c3c2)cc(N2C[C@@H](C(=O)NC3CCCCC3)CC[C@H]2C)n1` please.
stdout: 37

---

- Tested on: PAK2 (human), Q13177 [T402E]
- Sequence (Q13177 whole entry T402E, looked up): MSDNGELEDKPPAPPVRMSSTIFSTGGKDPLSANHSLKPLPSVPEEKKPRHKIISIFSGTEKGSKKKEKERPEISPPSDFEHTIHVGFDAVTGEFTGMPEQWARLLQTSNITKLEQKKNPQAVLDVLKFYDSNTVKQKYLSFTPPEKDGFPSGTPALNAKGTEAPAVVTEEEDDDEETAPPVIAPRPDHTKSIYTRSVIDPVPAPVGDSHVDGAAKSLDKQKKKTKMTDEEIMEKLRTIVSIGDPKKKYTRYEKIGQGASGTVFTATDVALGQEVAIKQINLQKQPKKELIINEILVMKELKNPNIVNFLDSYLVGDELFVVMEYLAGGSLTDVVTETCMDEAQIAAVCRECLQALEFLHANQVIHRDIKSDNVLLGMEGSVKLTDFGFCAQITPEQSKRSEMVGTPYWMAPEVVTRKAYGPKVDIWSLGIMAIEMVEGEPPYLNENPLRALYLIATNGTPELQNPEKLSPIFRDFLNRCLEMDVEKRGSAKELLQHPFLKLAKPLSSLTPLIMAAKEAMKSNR
- assay.notes: radiometric filter-binding kinase assay
- assay.setup: compound 1.0 µM
Label fulfilled for high-side residual activity (at or above 90%) and not fulfilled for low-side residual activity (below it).

See these solved cases before continuing.
                                   molecule               subject_of_test  discrete_label
0  N#Cc1c(C2CCNCC2)cc(-c2c(O)cccc2OCC2CC2)nc1N  PAK2 (human), Q13177 [T402E]   not fulfilled
1  Nc1cccc2c1CN(C1CCC(=O)NC1=O)C2=O (configuration not stated)  PAK2 (human), Q13177 [T402E]       fulfilled
2  NC1(c2ccc(-c3nc4ccn5c(=O)[nH]nc5c4cc3-c3ccccc3)cc2)CCC1  PAK2 (human), Q13177 [T402E]       fulfilled
3  COc1ccc(N(C(=O)Nc2c(C)cccc2C)c2cc(Nc3ccc(N4CCN(C)CC4)cc3)ncn2)c(OC)c1  PAK2 (human), Q13177 [T402E]   not fulfilled
4  O=C(Nc1nc2cc(C(F)(F)F)cc(NC3CC3)n2n1)c1cccnc1  PAK2 (human), Q13177 [T402E]       fulfilled

stdin: Please tell me: is the molecule `NCC(=O)Nc1ccc(-n2nc(C(F)(F)F)cc2-c2ccc3c(ccc4ccccc43)c2)cc1` at or over 90% in terms of residual activity?
stdout: fulfilled

stdin: Please tell me: is the molecule `CN(C)C/C=C/C(=O)Nc1cccc(C(=O)Nc2ccc(Nc3nccc(-c4cccnc4)n3)cc2)c1` at or over 90% in terms of residual activity?
stdout: fulfilled

stdin: Please tell me: is the molecule `O=C(N[C@@H](COc1ccc2[nH]c(=O)[nH]c2c1)c1ccccc1)c1cccn(Cc2ccc(F)c(F)c2)c1=O` at or over 90% in terms of residual activity?
stdout: fulfilled

stdin: Please tell me: is the molecule `CCn1c(-c2nonc2N)nc2cncc(CNC3CCNCC3)c21` at or over 90% in terms of residual activity?
stdout: fulfilled

stdin: Please tell me: is the molecule CNC(=O)C1[C@H]2O[C@@](C)([C@@H]1N)n1c3ccccc3c3c4c(c5c6ccccc6n2c5c31)C(=O)NC4 (some centres not stated) at or over 90% in terms of residual activity?
stdout: not fulfilled

Measured values drawn from the kinase profiling compilation of Christmann-Franck et al. (2016) for this set.
